Recorded measurements of Kd, one per entry
- System: feline FcRn complex (FcRn-α subunit and β-microglobulin), biotin labeled (feline)
- Test Summary: SPR, pH 6
// units = nM; emit number, no label

feline IgG1a T256V (antibody, part only; not given: Variable domains, not shown: another chain or arm of the molecule) constant: ASTTAPSVFPLAPSCGTTSGATVALACLVLGYFPEPVTVSWNSGALTSGVHTFPAVLQASGLYSLSSMVTVPSSRWLSDTFTCNVAHPPSNTKVDKTVRKTDHPPGPKPCDCPKCPPPEMLGGPSIFIFPPKPKDTLSISRVPEVTCLVVDLGPDDSDVQITWFVDNTQVYTAKTSPREEQFNSTYRVVSVLPILHQDWLKGKEFKCKVNSKSLPSPIERTISKAKGQPHEPQVYVLPPAQEELSRNKVSVTCLIKSFHPPDIAVEWEITGQPEPENNYRTTPPQLDSDGTYFVYSKLSVDRSHWQRGNTYTCSVSHEALHSHHTQKSLTQSPGK    19.5

Recall and state the measured Kd for feline IgG1a Q311H (antibody, part only; not given: Variable domains, not shown: another chain or arm of the molecule) constant: ASTTAPSVFPLAPSCGTTSGATVALACLVLGYFPEPVTVSWNSGALTSGVHTFPAVLQASGLYSLSSMVTVPSSRWLSDTFTCNVAHPPSNTKVDKTVRKTDHPPGPKPCDCPKCPPPEMLGGPSIFIFPPKPKDTLSISRTPEVTCLVVDLGPDDSDVQITWFVDNTQVYTAKTSPREEQFNSTYRVVSVLPILHHDWLKGKEFKCKVNSKSLPSPIERTISKAKGQPHEPQVYVLPPAQEELSRNKVSVTCLIKSFHPPDIAVEWEITGQPEPENNYRTTPPQLDSDGTYFVYSKLSVDRSHWQRGNTYTCSVSHEALHSHHTQKSLTQSPGK .
5.84
